Biological target: δ-ALA-D (Mus musculus)
Sequence (P10518 1-330): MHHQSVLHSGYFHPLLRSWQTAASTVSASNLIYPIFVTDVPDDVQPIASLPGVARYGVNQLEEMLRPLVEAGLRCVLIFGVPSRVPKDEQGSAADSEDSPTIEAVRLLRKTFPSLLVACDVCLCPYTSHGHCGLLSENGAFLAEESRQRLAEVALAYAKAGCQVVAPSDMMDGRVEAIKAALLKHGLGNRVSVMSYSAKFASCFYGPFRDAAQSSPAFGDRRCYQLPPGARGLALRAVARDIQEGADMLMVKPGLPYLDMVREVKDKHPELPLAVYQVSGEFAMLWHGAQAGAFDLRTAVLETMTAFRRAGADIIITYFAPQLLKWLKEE
Experiment: δ-ALA-D activity in tissue supernatants (in vitro toxicity)
Conditions: Liver, 50 μM; mean ± SD (n = 3)
Property name: δ-ALA-D activity (nmol PBG.mg.tn‐1.h‐1)
Reply with just the number (in nmol PBG.mg.tn‐1.h‐1).

Looking up CC(C)=CCCC(C)(C/C=[N+](\C)[O-])Sc1ccccc1 (stereo not shown) [5c] , I see its δ-ALA-D activity listed as 4.31

Query CC(C)=CCCC(C)C/C=[N+](\C)[O-] (stereo not shown) [5d] yields δ-ALA-D activity of 4.22

Lab note: CC(C)=CCC[C@@H](C)C(/C=N/O)[Se]c1ccccc1 (stereo partly shown) [compound 10] gave δ-ALA-D activity of 4.71

// CC(C)=CCCC(C)C(/C=[N+](\C)[O-])Sc1ccccc1 (stereo not shown) [5a] : δ-ALA-D activity value = 4.87

Data credit: paper PMC5590075
